- System: HCT-116
- method-summary: Antitumor activity against human HCT116 cells after 72 hrs by MTT assay
- Type: functional, cell-based
- cond: HCT-116, 72 h
Overview of reported pIC50 across a group of molecules:
Keep it numeric: pIC50 is minus log10 of the concentration in mol/L.

- chemical-smiles: "CC(C)CC(=O)C[C@@H](C)[C@H]1CC[C@@]2(C)C3=C(CC[C@]12C)[C@@]1(C)CC[C@H](OS(=O)(=O)[O-])[C@@](C)(COS(=O)(=O)[O-])[C@@H]1CC3.[Na+].[Na+]"
  pIC50: 4.51

Query block: Which pIC50 is reported for this molecule? CC(C)=CC(=O)C[C@@H](C)[C@H]1CC[C@@]2(C)[C@@H]3CC[C@H]4[C@](C)(COS(=O)(=O)[O-])[C@@H](OS(=O)(=O)[O-])CC[C@@]45C[C@@]35CC[C@]12C.[Na+].[Na+]
Result block: 4.51

Query block: And what about the molecule CC(C)CC(=O)C[C@@H](C)[C@H]1CC[C@@]2(C)[C@@H]3CC[C@H]4[C@](C)(COS(=O)(=O)[O-])[C@@H](OS(=O)(=O)[O-])CC[C@@]45C[C@@]35CC[C@]12C.[Na+].[Na+] ?
Result block: 4.51

Query block: And what about the molecule CC(C)=CC(=O)C[C@@H](C)[C@H]1CC[C@@]2(C)[C@@H]3CC[C@H]4[C@](C)(CO)[C@@H](O)CC[C@@]45C[C@@]35CC[C@]12C ?
Result block: 5.22

Query block: And what about the molecule CC(C)=CC(=O)C[C@@H](C)[C@H]1CC[C@@]2(C)[C@@H]3CC[C@H]4[C@](C)(CO)[C@@H](OS(=O)(=O)[O-])CC[C@@]45C[C@@]35CC[C@]12C.[Na+] ?
Result block: 5.22

Query block: And what about the molecule CC(C)=CC(=O)C[C@@H](C)[C@H]1CC[C@@]2(C)[C@@H]3CC[C@H]4[C@](C)(COS(=O)(=O)[O-])[C@@H](O)CC[C@@]45C[C@@]35CC[C@]12C.[Na+] ?
Result block: 5.22

Query block: And what about the molecule CC(C)C[C@H](O)C[C@@H](C)[C@H]1CC[C@@]2(C)[C@@H]3CC[C@H]4[C@](C)(COS(=O)(=O)[O-])[C@@H](OS(=O)(=O)[O-])CC[C@@]45C[C@@]35CC[C@]12C.[Na+].[Na+] ?
Result block: 4.51
